phosphorylation enrichment values for the sequences below.
molecular target: EPHB2 (UniProt P29323); assay: phosphorylation enrichment, bacterial display (enrichment ratio); higher = better substrate or ligand; peptides without Tyr show the background
Sequence (P29323 whole entry, looked up): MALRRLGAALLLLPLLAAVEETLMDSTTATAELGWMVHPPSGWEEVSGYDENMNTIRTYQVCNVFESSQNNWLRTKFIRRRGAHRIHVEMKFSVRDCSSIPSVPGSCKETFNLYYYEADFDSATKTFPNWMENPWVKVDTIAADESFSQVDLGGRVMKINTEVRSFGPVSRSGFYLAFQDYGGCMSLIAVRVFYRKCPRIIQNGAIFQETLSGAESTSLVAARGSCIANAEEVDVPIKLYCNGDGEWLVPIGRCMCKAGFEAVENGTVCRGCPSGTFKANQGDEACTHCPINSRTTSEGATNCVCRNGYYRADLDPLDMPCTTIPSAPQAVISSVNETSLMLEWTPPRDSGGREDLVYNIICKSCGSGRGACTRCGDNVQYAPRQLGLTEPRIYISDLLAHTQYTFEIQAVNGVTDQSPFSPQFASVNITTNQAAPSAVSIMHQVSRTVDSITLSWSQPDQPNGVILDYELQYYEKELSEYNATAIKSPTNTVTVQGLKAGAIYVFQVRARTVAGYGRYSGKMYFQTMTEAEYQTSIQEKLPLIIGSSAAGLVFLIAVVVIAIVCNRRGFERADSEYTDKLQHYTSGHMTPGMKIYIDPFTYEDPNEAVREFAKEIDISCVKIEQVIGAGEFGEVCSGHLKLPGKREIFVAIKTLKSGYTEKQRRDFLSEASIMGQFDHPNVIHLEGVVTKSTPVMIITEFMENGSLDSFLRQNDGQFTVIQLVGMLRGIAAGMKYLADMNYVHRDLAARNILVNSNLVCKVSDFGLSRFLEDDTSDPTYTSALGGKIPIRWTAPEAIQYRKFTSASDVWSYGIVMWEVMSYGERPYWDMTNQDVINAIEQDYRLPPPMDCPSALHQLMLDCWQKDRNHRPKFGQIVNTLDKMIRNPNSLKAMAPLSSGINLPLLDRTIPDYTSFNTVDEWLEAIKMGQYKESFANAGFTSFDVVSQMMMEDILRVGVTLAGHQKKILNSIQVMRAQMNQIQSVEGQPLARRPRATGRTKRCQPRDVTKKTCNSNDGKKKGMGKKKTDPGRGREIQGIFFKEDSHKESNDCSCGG

SEQUENCE_INPUT | phosphorylation enrichment
MARDIYQASFF [LTK_Y672_R673Q_YF] | 1.7
GEDLSYGDLPP [IRS1_Y151_V154L] | 0.664
DFPIGYPSFLA [TBCK_Y153_YF] | 0.503
ATPKGYEPDAS [OTC_Y223] | 0.575
KDDEKYLDVIR [MTM1_Y260] | 0.49
LRFDSYSSFCN [SLC20A2_Y433_YF] | 0.734
GKGGSYSKAEW [HLA-E_Y341] | 0.467
YEEDSYVKRSQ [RET_Y905] | 0.643
FGMQLYQNFMH [GRB14_Y347_YF] | 2.41
EKAEVYGSENE [RIOK2_Y348] | 0.52
AIQDAYMHITS [ADCY10_Y318] | 0.492
PEADKYCLTYA [FGG_Y300_R301C] | 0.599
VIEYSYTSADG [DHCR7_Y382_C380Y] | 0.633
PPAPRCHHSAV [LZTR1_Y119_Y119C] | 0.701
KRFRIYHLATS [BRCA2_Y3009_YF] | 0.435
FSPPFYHRNCM [HGD_Y334_R330S_YF] | 0.545
PLDGEYFTPQI [TP53_Y327_L330P] | 1.91
KIEGIYARDET [RPL35A_Y34_V33I] | 0.497
LKEIHYPPYTD [ALDH3B2_Y362] | 0.744
AKLKDYFIFNK [CCDC42_Y149_YF] | 0.513
PDKRIYQFTAS [SKAP2_Y197_A202S] | 0.629
TEALFYTDDPA [ADPRS_Y75_T79P_YF] | 0.894
AGQERYRAITS [RAB11B_Y73] | 0.53
ECKASYPGKIT [PRSS3_Y232] | 0.389
KVALVYGQMNE [ATP5F1B_Y269] | 0.495
KLADMYGGGKD [CDH1_Y876_E880K] | 0.497
DLLMQHPKAQG [FAM83C_Y600_Y600H] | 0.332
KANEFYPVVII [ADAMTS18_Y765_L769I_YF] | 0.695
AAVNGYAFGGG [ECHS1_Y137] | 0.389
CEETFYTMKMN [MASP2_Y401_V405M] | 0.894
QMVGMYASSYM [AVPR2_Y124] | 1.09
ELTAKYLNYYR [P3H4_Y181_Q186R] | 0.512
NTGDDYDLFGG [PTPN11_Y63_Y62D_YF] | 0.608
EPNSRYTCKLE [USH2A_Y3745_Y3747C] | 0.562
VKANTYENFWP [GATM_Y100_K102N_YF] | 2.03
NRSSLYLVAGP [KIAA1614_Y1083] | 0.517
TLQSMSGCDVG [HLA-B_Y123_Y123S] | 0.601
RLSPEYKQNEI [GJB1_Y243] | 0.555
MSRNLYSGDFF [DDR2_Y736_YF] | 10
KLKPIYFHTQG [AR_Y916_V912L] | 0.503
EKGEEYGGGGG [TUBA1A_Y451_E447K] | 0.574
EGNEQYEGFCV [GRIA3_Y451_R450Q_YF] | 0.639
AAQNCYKVTNA [TPI1_Y105_G110A] | 0.455
SENAFYLSPHI [COL6A3_Y2827_D2831H] | 0.573
KIRDWYQRQRP [KRT14_Y151] | 0.463
DFKIIYIVPMR [SNRNP200_Y540_A542V] | 0.532
DSMQSYDLDYP [UNC13B_Y243] | 0.552
SVTCTYSPAPN [TP53_Y126_L130P] | 0.581
TSPKSCPSQKH [CAP2_Y316_Y316C] | 0.361
KAPPTYDTVLQ [CYP3A4_Y347] | 7.86
FTNRSYDLDFD [MYC_Y12_N11S_YF] | 0.58
CTTIPYNYMCN [TP53_Y234_H233P] | 0.509
QCTSDYPEHVC [SART3_Y541] | 0.523
GETEQYVGGGG [FAT4_Y4980_A4977T] | 0.475
TKDTIYKQPMF [GBA_Y451_F450I] | 0.439
QRCYVYYYSYL [PTEN_Y176_R173C] | 1.45
IQTDGYRAPEA [UHMK1_Y197] | 0.496
PKSWNYELPAT [PROM1_Y34_A31S] | 1.67
AYRRGYFDEEM [PLEC_Y2971] | 0.377

====

Below, each of the sequences is paired with its reported SH2 binding enrichment value.
molecular target: c-Src SH2; experiment: SH2 binding enrichment of the phosphorylated peptide, bacterial display (enrichment ratio); higher = better substrate or ligand; peptides without Tyr show the background;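 also: peptide library displayed on the E. coli surface as eCPX fusions, selected cells deep-sequenced, score is each peptide's frequency after selection divided by its frequency in the input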

SEQUENCE_INPUT | SH2 binding enrichment
MTYVFYRENLR [NLRP14_Y443] | 0.72
SEELHYYVQNH [UQCRC2_Y207_F208Y] | 0.723
LRFDSYSSFCN [SLC20A2_Y433_YF] | 0.519
MSNVPYVMNRG [ACAT1_Y161] | 0.399
EGTATYAAAIL [JUP_Y644_V648I] | 0.412
QCTSAYPLQPE [NANS_Y188] | 0.594
ECKASYPGKIT [PRSS3_Y232] | 0.557
KDAGDYKYKAK [LRIT3_Y326_C328Y] | 0.415
VKANTYEKYWL [GATM_Y100_P105L] | 1.14
RKVAQYMLENE [SLC16A6_Y224_E221V] | 0.697
LNPDGYEKAFE [CPXM2_Y427_YF] | 3.95
MRTMGYMPTEM [CABP5_Y62] | 0.407
SYCYRYRCAPR [SUMF1_Y344_A348P] | 0.434
SVVVPYEPPDV [TP53_Y220_E224D] | 0.735
VNCHQYDGLVG [ATP2A2_Y407_E412G] | 11.1
RLLRGYRQDAY [HLA-A_Y137_F133L] | 0.437
RMGNLYDIDEN [GRIN2A_Y1246_D1251N] | 1.2
SVVVPYEPPEF [TP53_Y220_V225F] | 0.987
PINLFYLMDLS [ITGB2_Y131_D128N_YF] | 0.489
CDKEFYSVHNK [MET_Y1235_Y1230C_YF] | 0.727
AAVNGYAFGGG [ECHS1_Y137] | 0.455
EKRDAYVSRLN [GSR_Y150] | 0.43
EKLQKYYRKNP [EHHADH_Y682_Q685K] | 0.603
NTGDDYDLFGG [PTPN11_Y63_Y62D_YF] | 0.376
VDSNPYSRLMA [UBA5_Y53] | 1.57
QGLRLYRSHLA [BTK_Y617_P619S] | 1.03
HGVSSYDTVIS [LDLR_Y465] | 6.43
DDKEYYSVHNK [MET_Y1235_Y1230D] | 0.461
PLQDVYKIGGI [EEF1A2_Y254] | 0.429
